Hey, just so you know, these numbers are from PubChem BioAssay AID539.

- System: phosphomevalonate kinase (Streptococcus pneumoniae D39)
- ASSAY DETAILS: phosphomevalonate kinase enzyme inhibition – biochemical, mevalonate pathway, pilot trial included, primary screen (AID 539);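 further: 0% = full reaction with DMSO carrier and 100% = background rate without enzyme reaction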
- CONDITION DETAILS: purified PMK, PK/LDH-coupled NADH absorbance 340 nm; measured here: pilot screen replicates; at 10 µM; stronger effect = higher value
Among all 65,000 compounds or so, about 320 (0.49%) were called active. The list comes from a sample in which actives are over-represented; it also holds close analogues and randomly drawn compounds.
Please respond with reported inhibition for every item in the list.
One number for each entry, in %.

Known inhibition results, listed for orientation:
| COMPOUND | inhibition [%] |
| --- | --- |
| CCCSc1nc2c(c(=O)[nH]c(=O)n2C)n1CCc1ccccc1 | 2 |
| C=CCN(CC=C)C(=O)CN1C(=O)c2ccccc2C1=O | 1.5 |
| C/C(N)=C(\C#N)C(=O)NCCc1ccccn1 | 4.5 |
| CCN(c1ccc2c(c1)OCO2)S(=O)(=O)c1cc(Br)cc2c1N(C(=O)C1CC1)CC2 | 3.5 |
| CCOC(=O)c1c(C)oc2ccc(OCC(=O)N(CC)CC)cc12 | 2.5 |

// each listed compound needs a value for inhibition
1. COc1ccccc1NC(=O)C1=C(C)Nc2ncnn2C1c1ccc(C)o1 (stereo not given)
2. OCc1nc(CO)n(Cc2ccccc2)n1

Result string:
2.5
1

Answer for every listed entry: what is its inhibition? The entries follow.
1. Cc1cc(NC(=O)CN2CCC(O)(c3cccc(F)c3)CC2)no1
2. COc1ccccc1CNC(=O)C1CCCN(S(=O)(=O)c2cccc3cccnc23)C1 (stereo not given)
3. C1=C(CCNc2ncnc3c2cnn3-c2ccccc2)CCCC1

Result string:
[0, 3, 0.5]

* * *

- Test system: phosphomevalonate kinase (Streptococcus pneumoniae D39)
- ASSAY DETAILS: phosphomevalonate kinase enzyme inhibition – biochemical, mevalonate pathway, pilot trial included, primary screen (AID 539);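 further: 0% = full reaction with DMSO carrier and 100% = background rate without enzyme reaction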
- CONDITION DETAILS: purified PMK, PK/LDH-coupled NADH absorbance 340 nm; at 10 µM; stronger effect = higher value
The campaign covered roughly 65,000 compounds. About 320 (0.49%) were called active. The entries come from a sample that favours actives as a whole.
ENDPOINT NAME: inhibition (%)
One number for each entry, in %.

Answered cases to consult:
| COMPOUND | inhibition / % |
| --- | --- |
| O=C(CCS(=O)(=O)c1ccccc1)Nc1nc2c(s1)CCCC2 | 12 |
| CCCN(c1ccc(C(C)C)cc1)S(=O)(=O)c1c(C)[nH]c(=O)[nH]c1=O | 8 |

Need inhibition for each of these compounds.
1. CCC1CCCCN1CCCNC(=O)Cn1nc(-c2ccccc2)ccc1=O (centres undefined)
2. CCOC(=O)c1cccc(NC(=O)CN(c2ccc(C)cc2)S(=O)(=O)c2c(C)noc2C)c1
3. O=C(CCSc1ccccc1)NCCSc1ccccn1

Result string:
1. 26
2. 13
3. 12

* * *

- System: phosphomevalonate kinase (Streptococcus pneumoniae D39)
- ASSAY DETAILS: phosphomevalonate kinase enzyme inhibition – biochemical, mevalonate pathway, pilot trial included, primary screen (AID 539);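 further: 0% = full reaction with DMSO carrier and 100% = background rate without enzyme reaction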
- CONDITION DETAILS: purified PMK, PK/LDH-coupled NADH absorbance 340 nm; at 10 µM; stronger effect = higher value
The whole screen tested about 65,000 compounds, of which about 320 (0.49%) were called active. The full list was thinned out, with actives kept by preference.
ENDPOINT NAME: inhibition (%)
Answers are plain numbers, in %.

Use the examples below as a reference point.
| MOLECULE | ASSAY TARGET | DATA VALUE |
| --- | --- | --- |
| CCOC(=O)Nc1ccc2c(c1)N(C(=O)CN1CCN3CCCC3C1)c1ccccc1CC2 (centres undefined) | phosphomevalonate kinase (Streptococcus pneumoniae D39) | 9 |
| COc1ccccc1NC(=O)C1=C(C)Nc2ncnn2C1c1ccc(C)o1 (centres undefined) | phosphomevalonate kinase (Streptococcus pneumoniae D39) | 3 |
| CCc1nnc(NC(=O)CCC(=O)O)s1 | phosphomevalonate kinase (Streptococcus pneumoniae D39) | 0 |
| CC(C)N(C(=O)Cn1c(SCC(=O)N2CCN(c3ccccc3)CC2)nc2ccccc21)C(C)C | phosphomevalonate kinase (Streptococcus pneumoniae D39) | 4 |
| NC(=O)C1CCN(C(=O)c2ccc(C(F)(F)F)cc2)CC1 | phosphomevalonate kinase (Streptococcus pneumoniae D39) | 12 |
| CC(=O)N1CCN(C(=O)Nc2cccc(C(F)(F)F)c2)CC1 | phosphomevalonate kinase (Streptococcus pneumoniae D39) | 17 |

For each of the molecules below, state inhibition.
1. Cc1ccc(S(=O)(=O)N2CCN(C(=O)CCC(=O)NC3CCCc4ccccc43)CC2)cc1 (centres undefined)
2. Cc1ccccc1CSc1nnc(Cn2c(=O)sc3ccccc32)n1C
3. CCOc1ccccc1Nc1nnc(SCc2ccc(C(=O)OC)o2)s1

Result string:
1: 21; 2: 12; 3: 0
